# System: influenza A/H3N2 (A/HK/7/87)
# EXPERIMENTAL PROTOCOL: Antiviral CPE reduction assay, influenza A/H3N2 in MDCK cells
# Type: cell-based, influenza A virus
# PROTOCOL CONDITIONS: Influenza A virus, H3N2; MDCK cells; CPE reduction, MTS; mean ± SD of two or three independent experiments; read-out: Antiviral Activity (EC50) Influenza H3N2
Measured EC50 of individual entries

[[record]]
compound = "CN1CCN(c2ncc3c(Nc4cccc5c4CCC5)ncnc3n2)CC1 [Compound 7d]"
endpoint_name = "EC50"
readout_value = "> 50 µM"


Give the measured EC50 of CN1CCN(c2ncc3c(Nc4cccnc4)ncnc3n2)CC1 [Compound 7k] .
> 50 µM

Param item: CN(C)CCNc1ncc2c(Nc3cccc4c3CCCC4)ncnc2n1 [Compound 7a]
> 50 µM

Param item: CC(N)C12CC3CC(CC(C3)C1)C2 (centres unmarked) [Rimantadine, rimantadine, reference compound]
0.6 µM

---

# Test system: HCT-116 (colorectal carcinoma)
# EXPERIMENTAL PROTOCOL: MTS proliferation assay, HCT-116
# PROTOCOL CONDITIONS: read-out: Anti-Proliferative Activity (IC50) HCT-116; 72 h, MTS; mean ± SD of two independent experiments
ENDPOINT NAME: pIC50
For clarity, pIC50 is expressed as the negative log10 of concentration in mol/L.

API: value(readout=pIC50, system=HCT-116 (colorectal carcinoma)) for record C=CC(=O)Nc1cccc(Nc2nc(Nc3ccc(NC4CN(CCF)C4)cc3OC)ncc2C(F)(F)F)c1 [CNX-2006, reference compound]
5.18

---

# Tested on: respiratory syncytial virus A (RSV A Long)
# EXPERIMENTAL PROTOCOL: Antiviral CPE reduction assay, RSV A Long in Hep2 cells
# Format: cell-based
# PROTOCOL CONDITIONS: human respiratory syncytial virus, HEp-2; Hep2 cells; CPE reduction, MTS; mean ± SD of two or three independent experiments; read-out: Antiviral Activity (EC50) RSV A Long
pEC50: −log10 of the molar value.
Measured pEC50 of individual entries

Solved entries:
[[record]]
molecule = "C#Cc1cccc(Nc2ncnc3cc4c(cc23)OCCOCCOCCO4)c1 [Icotinib, icotinib, reference compound]"
endpoint_name = "pEC50"
readout_value = "< 4.00"

[[record]]
molecule = "C=CC(=O)Nc1cccc(Oc2nc(Nc3ccc(N4CCN(C)CC4)cc3OC)ncc2Cl)c1 [WZ4002, reference compound]"
endpoint_name = "pEC50"
readout_value = "< 4.00"

[[record]]
molecule = "c1cncc(Nc2ncnc3nc(NC4CC4)ncc23)c1"
endpoint_name = "pEC50"
readout_value = "< 4.30"


// switching to the query molecule
Give the measured pEC50 of "CN(C)CCNc1ncc2c(Nc3cccc4c3CCC4)ncnc2n1" .
< 4.30

---

# EXPERIMENTAL PROTOCOL: in vitro
# PROTOCOL CONDITIONS: dog
ENDPOINT NAME: CC50

Solved entries:
[[record]]
compound = "c1cc2c(c(Nc3ncnc4nc(NC5CC5)ncc34)c1)CCCC2 [Compound 7c]"
readout_value = "> 50 µM"

[[record]]
compound = "C#Cc1cccc(Nc2ncnc3nc(NC4CC4)ncc23)c1 [Compound 7j]"
readout_value = "> 50 µM"

[[record]]
compound = "CN1CCN(c2ncc3c(Nc4cccnc4)ncnc3n2)CC1 [Compound 7k]"
readout_value = "> 50 µM"

[[record]]
compound = "CC(=O)N[C@H]1[C@H]([C@H](O)[C@H](O)CO)OC(C(=O)O)=C[C@@H]1N=C(N)N [Zanamivir, zanamivir, reference compound]"
readout_value = "> 100 µM"

[[record]]
compound = "c1cncc(Nc2ncnc3nc(NC4CC4)ncc23)c1 [Compound 7m]"
readout_value = "> 50 µM"

[[record]]
compound = "CC(N)C12CC3CC(CC(C3)C1)C2 (centres unmarked) [Rimantadine, rimantadine, reference compound]"
readout_value = "> 100 µM"


Give the measured CC50 of C#Cc1cccc(Nc2ncnc3nc(N4CCN(C)CC4)ncc23)c1 [Compound 7h] .
> 50 µM

Param item: C#Cc1cccc(Nc2ncnc3cc(OCCOC)c(OCCO)cc23)c1 [OSI-420, reference compound]
> 100 µM

Param item: CN(C)CCNc1ncc2c(Nc3cccc4c3CCC4)ncnc2n1 [Compound 7e]
> 50 µM

Param item: C=CC(=O)Nc1cccc(Oc2nc(Nc3ccc(N4CCN(C)CC4)cc3OC)ncc2Cl)c1 [WZ4002, reference compound]
> 100 µM

Param item: CCN(CC)CCNc1ncc2c(Nc3cccnc3)ncnc2n1 [Compound 7l]
> 50 µM

Param item: NC(=O)c1ncn([C@@H]2O[C@H](CO)[C@@H](O)[C@H]2O)n1 [Ribavirin, ribavirin, reference compound]
> 250 µM

Param item: CC#CC(=O)Nc1ccc2ncnc(Nc3cccc(Br)c3)c2c1 [CL-387785, reference compound]
7.1 µM

Param item: c1cc2c(c(Nc3ncnc4nc(NC5CC5)ncc34)c1)CCC2 [Compound 7g]
> 50 µM

Param item: C#Cc1cccc(Nc2ncnc3cc4c(cc23)OCCOCCOCCO4)c1 [Icotinib, icotinib, reference compound]
> 100 µM

Param item: CN(C)CCNc1ncc2c(Nc3cccc4c3CCCC4)ncnc2n1 [Compound 7a]
> 50 µM

Param item: CCN(CC)CCNc1ncc2c(Nc3cccc4c3CCCC4)ncnc2n1 [Compound 7b]
> 50 µM

---

# Tested on: MDCK cells
ENDPOINT NAME: CC50
Kindly write the number and append the unit.

Give the measured CC50 of C=CC(=O)Nc1cccc(Nc2nc(Nc3ccc(NC4CN(CCF)C4)cc3OC)ncc2C(F)(F)F)c1 [CNX-2006, reference compound] .
1700 nM

---

# Test system: LN-229 (glioblastoma)
# EXPERIMENTAL PROTOCOL: MTS proliferation assay, LN-229
# PROTOCOL CONDITIONS: read-out: Anti-Proliferative Activity (IC50) LN-229; 72 h, MTS; mean ± SD of two independent experiments
ENDPOINT NAME: IC50
Kindly write the number and append the unit.

Give the measured IC50 of C=CC(=O)Nc1cccc(Nc2nc(Nc3ccc(NC4CN(CCF)C4)cc3OC)ncc2C(F)(F)F)c1 [CNX-2006, reference compound] .
8.2 µM

---

# System: Capan-1 (pancreatic adenocarcinoma)
# EXPERIMENTAL PROTOCOL: MTS proliferation assay, Capan-1
# PROTOCOL CONDITIONS: read-out: Anti-Proliferative Activity (IC50) Capan-1; 72 h, MTS; mean ± SD of two independent experiments
ENDPOINT NAME: pIC50
For clarity, pIC50 is expressed as the negative log10 of concentration in mol/L.

Give the measured pIC50 of C=CC(=O)Nc1cccc(Nc2nc(Nc3ccc(NC4CN(CCF)C4)cc3OC)ncc2C(F)(F)F)c1 [CNX-2006, reference compound] .
5.77

---

# System: HCT-116 (colorectal carcinoma)
# EXPERIMENTAL PROTOCOL: MTS proliferation assay, HCT-116
# PROTOCOL CONDITIONS: Homo sapiens, HCT-116, 72 h, read-out: Anti-Proliferative Activity (IC50) HCT-116
ENDPOINT NAME: IC50

Solved entries:
[[record]]
compound = "CN1CCN(c2ncc3c(Nc4cccnc4)ncnc3n2)CC1 [Compound 7k]"
endpoint_name = "IC50"
readout_value = "> 100 µM"

[[record]]
compound = "C#Cc1cccc(Nc2ncnc3nc(NCCN(CC)CC)ncc23)c1 [Compound 7i]"
endpoint_name = "IC50"
readout_value = "> 100 µM"

[[record]]
compound = "C=CC(=O)Nc1cccc(Oc2nc(Nc3ccc(N4CCN(C)CC4)cc3OC)ncc2Cl)c1 [WZ4002, reference compound]"
endpoint_name = "IC50"
readout_value = "> 100 µM"

[[record]]
compound = "CN(C)CCNc1ncc2c(Nc3cccc4c3CCCC4)ncnc2n1 [Compound 7a]"
endpoint_name = "IC50"
readout_value = "> 100 µM"

[[record]]
compound = "c1cncc(Nc2ncnc3nc(NC4CC4)ncc23)c1 [Compound 7m]"
endpoint_name = "IC50"
readout_value = "> 100 µM"


Give the measured IC50 of CC#CC(=O)Nc1ccc2ncnc(Nc3cccc(Br)c3)c2c1 [CL-387785, reference compound] .
1.3 µM

Param item: CN1CCN(c2ncc3c(Nc4cccc5c4CCC5)ncnc3n2)CC1 [Compound 7d]
> 100 µM

Param item: C#Cc1cccc(Nc2ncnc3cc4c(cc23)OCCOCCOCCO4)c1 [Icotinib, icotinib, reference compound]
> 100 µM

Param item: COc1cc([C@@H]2c3cc4c(cc3[C@@H](O[C@@H]3O[C@@H]5CO[C@@H](C)O[C@H]5[C@H](O)[C@H]3O)[C@H]3COC(=O)[C@H]23)OCO4)cc(OC)c1O [Etoposide, etoposide, reference compound]
1.4 µM

---

# Test system: HCoV-229E
# EXPERIMENTAL PROTOCOL: Antiviral CPE reduction assay, HCoV-229E in HEL299 cells
# Assay type: cell-based, human coronavirus 229E
# PROTOCOL CONDITIONS: Human coronavirus 229E, HEL 299, MTS, mean ± SD of two or three independent experiments
ENDPOINT NAME: EC50 (µM)
Numeric only. Scale: µM

Solved entries:
[[record]]
compound = "C#Cc1cccc(Nc2ncnc3cc(OCCOC)c(OCCOC)cc23)c1 [Erlotinib, erlotinib, reference compound]"
system_tested = "HCoV-229E"
readout_value = 22.5

[[record]]
compound = "C=CC(=O)Nc1cccc(Oc2nc(Nc3ccc(N4CCN(C)CC4)cc3OC)ncc2Cl)c1 [WZ4002, reference compound]"
system_tested = "HCoV-229E"
readout_value = 41.8

[[record]]
compound = "C#Cc1cccc(Nc2ncnc3nc(NCCN(CC)CC)ncc23)c1"
system_tested = "HCoV-229E"
readout_value = 19.3


Give the measured EC50 of "CCN(CC)CCNc1ncc2c(Nc3cccc4c3CCCC4)ncnc2n1" .
11

Param item: "CN(C)CCNc1ncc2c(Nc3cccc4c3CCCC4)ncnc2n1"
15.8

Param item: CC#CC(=O)Nc1ccc2ncnc(Nc3cccc(Br)c3)c2c1 [CL-387785, reference compound]
0.4

Param item: "CN(C)CCNc1ncc2c(Nc3cccc4c3CCC4)ncnc2n1"
20.6
